target: huPPARα (Homo sapiens)
Sequence (Q07869 whole entry): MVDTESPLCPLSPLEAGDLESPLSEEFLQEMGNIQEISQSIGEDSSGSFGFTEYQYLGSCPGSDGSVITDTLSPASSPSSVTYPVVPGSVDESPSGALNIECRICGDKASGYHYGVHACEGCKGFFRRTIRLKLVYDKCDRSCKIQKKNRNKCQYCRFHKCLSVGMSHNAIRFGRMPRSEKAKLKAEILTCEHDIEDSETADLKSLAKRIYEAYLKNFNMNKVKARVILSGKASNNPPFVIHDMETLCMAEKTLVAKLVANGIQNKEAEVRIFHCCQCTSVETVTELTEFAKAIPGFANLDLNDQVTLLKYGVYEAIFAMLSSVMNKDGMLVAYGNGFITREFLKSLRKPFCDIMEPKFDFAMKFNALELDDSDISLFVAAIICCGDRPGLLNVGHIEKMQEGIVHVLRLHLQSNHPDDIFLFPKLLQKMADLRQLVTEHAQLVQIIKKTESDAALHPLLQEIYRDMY
Sequence (P19793 whole entry partner): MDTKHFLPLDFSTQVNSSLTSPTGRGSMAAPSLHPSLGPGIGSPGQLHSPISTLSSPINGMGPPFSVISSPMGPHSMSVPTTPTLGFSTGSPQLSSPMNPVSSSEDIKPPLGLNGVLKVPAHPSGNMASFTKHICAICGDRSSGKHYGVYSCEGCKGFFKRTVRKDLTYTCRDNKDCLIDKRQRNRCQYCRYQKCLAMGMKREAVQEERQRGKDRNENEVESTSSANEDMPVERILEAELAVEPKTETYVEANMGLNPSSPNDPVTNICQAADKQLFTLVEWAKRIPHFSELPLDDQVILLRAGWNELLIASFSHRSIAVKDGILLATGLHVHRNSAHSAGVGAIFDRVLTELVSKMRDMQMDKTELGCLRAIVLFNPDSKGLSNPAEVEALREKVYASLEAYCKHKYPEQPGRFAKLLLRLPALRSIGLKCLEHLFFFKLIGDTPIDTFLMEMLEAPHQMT
Quantity measured: IC50 (µM)

[[record]]
compound = "Cc1oc(-c2cccc(-c3ccc(F)cc3)c2)nc1CCOc1ccc(CC(C)(Oc2ccccc2)C(=O)O)cc1 (stereo not shown)"
test_result = 0.147

[[record]]
compound = "Cc1oc(-c2cccc(-c3ccccc3)c2)nc1CCOc1ccc(CC(C)(Oc2ccc(F)cc2)C(=O)O)cc1 (stereo not shown)"
test_result = 0.203

[[record]]
compound = "Cc1oc(-c2cccc(-c3cccs3)c2)nc1CCOc1ccc(CC(C)(Oc2ccc(Cl)cc2)C(=O)O)cc1 (stereo not shown)"
test_result = 0.159

[[record]]
compound = "COc1cccc(OC(C)(Cc2ccc(OCCc3nc(-c4ccc(-c5ccccc5)cc4)oc3C)cc2)C(=O)O)c1 (stereo not shown)"
test_result = 0.613

[[record]]
compound = "Cc1oc(-c2ccc(-c3cccs3)cc2)nc1CCOc1ccc(CC(C)(Oc2ccc(C(C)(C)C)cc2)C(=O)O)cc1 (stereo not shown)"
test_result = 0.186

[[record]]
compound = "COc1cc(CC(C)(Oc2ccccc2)C(=O)O)ccc1OCCc1nc(-c2cccc(-c3ccccc3)c2)oc1C (stereo not shown)"
test_result = 0.605

[[record]]
compound = "COc1cc(CC(C)(Oc2ccccc2)C(=O)O)ccc1OCCc1nc(-c2ccc(-c3ccccc3)cc2)oc1C (stereo not shown)"
test_result = 4.12

